Hello, the source for this data is patent US4565811A, in case you need it.

Test: Acute toxicity of US in the rat by oral administration
Type: in vivo
Details: rat, in vivo, 5000 mg/kg
Reported Metric: mortality at 192 h (%)
Enter your answer as a number in %; do not include the unit.

Tell me the measured mortality at 192 h of CC(CCC(=O)O)C1CCC2C3C(OS(=O)(=O)O)CC4CC(OS(=O)(=O)O)CCC4(C)C3CCC12C (stereo not shown) , please.
20
